Tested on: Pseudomonas aeruginosa
test_details: Antibacterial activity against MexAB-OprM deleted Pseudomonas aeruginosa incubated for 16 hrs by broth microdilution method
Format: functional, organism-based
measurement_conditions: 16 h
readout_label: IC50 (µg/mL)
Your answer should be a plain number; it is taken to be in µg/mL.

Qu. For the compound CCCCCCOC(=O)[C@H]1O[C@@H](n2ccc(N)nc2=O)C=C[C@@H]1NC(=O)C[C@@H](N)CCN(C)C(=N)N , what IC50 is on record?
Ans. 77.2

Qu. Quick check: IC50 of C#CCCCOC(=O)[C@H]1O[C@@H](n2ccc(N)nc2=O)C=C[C@@H]1NC(=O)C[C@@H](N)CCN(C)C(=N)N ?
Ans. 74.3

Qu. Data request, read-out IC50, for CN(CC[C@H](N)CC(=O)N[C@H]1C=C[C@H](n2ccc(N)nc2=O)O[C@@H]1C(=O)O)C(=N)N.Cl
Ans. 73

Qu. Give the measured IC50 of CCCCOC(=O)[C@H]1O[C@@H](n2ccc(N)nc2=O)C=C[C@@H]1NC(=O)C[C@@H](N)CCN(C)C(=N)N .
Ans. 79.8

Qu. Endpoint output: IC50 of CN(CC[C@H](N)CC(=O)N[C@H]1C=C[C@H](n2ccc(N)nc2=O)O[C@@H]1C(N)=O)C(=N)N.Cl.Cl.Cl . Value?
Ans. 19.7

Qu. Fill in the blank: the reported IC50 of CN(CC[C@H](N)CC(=O)N[C@H]1C=C[C@H](n2ccc(N)nc2=O)O[C@@H]1C(=O)OCc1ccccc1)C(=N)N is ____.
Ans. 89.3

Qu. Which IC50 reading was recorded for the compound CN(CC[C@H](N)CC(=O)N[C@H]1C=C[C@H](n2ccc(N)nc2=O)O[C@@H]1C(=O)OCCc1ccccc1)C(=N)N ?
Ans. 76.9

* * *

test_details: Selectivity index, ratio of CC50 for human MRC5 cells to IC50 for Enterococcus faecalis ATCC 29212
Format: toxicity
measurement_conditions: read-out: Ratio CC50/IC50
readout_label: selectivity ratio
Answer with a number only.

Qu. Given COC(=O)[C@H]1O[C@@H](n2ccc(N)nc2=O)C=C[C@@H]1NC(=O)C[C@@H](N)CCN(C)C(=N)N , state its recorded selectivity ratio.
Ans. 2

Qu. What value of selectivity ratio has been recorded for this entry: CCOC(=O)[C@H]1O[C@@H](n2ccc(N)nc2=O)C=C[C@@H]1NC(=O)C[C@@H](N)CCN(C)C(=N)N.Cl.Cl.Cl
Ans. 0.9

Qu. What value of selectivity ratio has been recorded for this entry: CN(CC[C@H](N)CC(=O)N[C@H]1C=C[C@H](n2ccc(N)nc2=O)O[C@@H]1C(=O)OCCc1ccccc1)C(=N)N
Ans. 2.7

* * *

Test system: Candida albicans
test_details: Antifungal activity against Candida albicans assessed as zone of inhibition incubated for 18 hrs by spot on lawn assay
Type: functional, organism-based
Active and inactive are the calls of the source. The calls are words filed in the database; no cut-off is given here.
Hello, when you answer, please use one of the following outcomes: 1 (yes) = active, 0 (no) = inactive

Qu. // return assay outcome for CCOC(=O)[C@H]1O[C@@H](n2ccc(N)nc2=O)C=C[C@@H]1NC(=O)C[C@@H](N)CCN(C)C(=N)N.Cl.Cl.Cl
Ans. 0 (no)

Qu. Entry CCCCOC(=O)[C@H]1O[C@@H](n2ccc(N)nc2=O)C=C[C@@H]1NC(=O)C[C@@H](N)CCN(C)C(=N)N : call = ?
Ans. 0 (no)

Qu. Query: recorded result category for CN(CC[C@H](N)CC(=O)N[C@H]1C=C[C@H](n2ccc(N)nc2=O)O[C@@H]1C(=O)OCCc1ccccc1)C(=N)N in this test
Ans. 0 (no)

Qu. Please share the test call associated with C#CCCCOC(=O)[C@H]1O[C@@H](n2ccc(N)nc2=O)C=C[C@@H]1NC(=O)C[C@@H](N)CCN(C)C(=N)N .
Ans. 0 (no)

Qu. Record request — test call for CN(CC[C@H](N)CC(=O)N[C@H]1C=C[C@H](n2ccc(N)nc2=O)O[C@@H]1C(=O)O)C(=N)N.Cl
Ans. 1 (yes)

Qu. GET /call?item= CCCOC(=O)[C@H]1O[C@@H](n2ccc(N)nc2=O)C=C[C@@H]1NC(=O)C[C@@H](N)CCN(C)C(=N)N returns the recorded outcome of this test.
Ans. 0 (no)

Qu. Short answer needed: outcome of this test for COC(=O)[C@H]1O[C@@H](n2ccc(N)nc2=O)C=C[C@@H]1NC(=O)C[C@@H](N)CCN(C)C(=N)N ?
Ans. 0 (no)

* * *

Would you kindly list MIC for each of these compounds?
Test system: Pseudomonas aeruginosa
test_details: Antibacterial activity against MexAB-OprM deleted Pseudomonas aeruginosa incubated for 16 hrs by broth microdilution method
Format: functional, organism-based
measurement_conditions: time 16 hrs
Numeric answer only, unit mg/L assumed.

Qu. Endpoint output: MIC of COC(=O)[C@H]1O[C@@H](n2ccc(N)nc2=O)C=C[C@@H]1NC(=O)C[C@@H](N)CCN(C)C(=N)N . Value?
Ans. 128

Qu. Report MIC for CN(CC[C@H](N)CC(=O)N[C@H]1C=C[C@H](n2ccc(N)nc2=O)O[C@@H]1C(=O)O)C(=N)N.Cl please.
Ans. 128

Qu. Record request: MIC value, item CN(CC[C@H](N)CC(=O)N[C@H]1C=C[C@H](n2ccc(N)nc2=O)O[C@@H]1C(N)=O)C(=N)N.Cl.Cl.Cl
Ans. 64

* * *

Tested on: Pseudomonas aeruginosa
test_details: Antibacterial activity against MexAB-OprM deleted Pseudomonas aeruginosa incubated for 16 hrs by broth microdilution method
Format: functional, organism-based
measurement_conditions: 16 h
Please respond with reported IC50 for every item in the list.
Give the value in µg/mL but do not write µg/mL after it.

Qu. Please give the measured IC50 for this compound: CCOC(=O)[C@H]1O[C@@H](n2ccc(N)nc2=O)C=C[C@@H]1NC(=O)C[C@@H](N)CCN(C)C(=N)N.Cl.Cl.Cl
Ans. 67

Qu. Data request, read-out IC50, for COC(=O)[C@H]1O[C@@H](n2ccc(N)nc2=O)C=C[C@@H]1NC(=O)C[C@@H](N)CCN(C)C(=N)N
Ans. 35.1

Qu. For the compound CCCOC(=O)[C@H]1O[C@@H](n2ccc(N)nc2=O)C=C[C@@H]1NC(=O)C[C@@H](N)CCN(C)C(=N)N , what IC50 is on record?
Ans. 61.6

* * *

test_details: Selectivity index, ratio of CC50 for human MRC5 cells to IC50 for vancomycin-resistant Enterococcus
Type: toxicity
measurement_conditions: read-out: Ratio CC50/IC50
selectivity ratio below 0.6 gives f; selectivity ratio at or above it gives t.

Qu. I'd appreciate it if you could say whether CN(CC[C@H](N)CC(=O)N[C@H]1C=C[C@H](n2ccc(N)nc2=O)O[C@@H]1C(=O)O)C(=N)N.Cl has selectivity ratio at least equal to 0.6.
Ans. f

Qu. I'd appreciate it if you could say whether CCCCOC(=O)[C@H]1O[C@@H](n2ccc(N)nc2=O)C=C[C@@H]1NC(=O)C[C@@H](N)CCN(C)C(=N)N has selectivity ratio at least equal to 0.6.
Ans. f

Qu. Hello, I need to know if CCCOC(=O)[C@H]1O[C@@H](n2ccc(N)nc2=O)C=C[C@@H]1NC(=O)C[C@@H](N)CCN(C)C(=N)N has measured selectivity ratio not below 0.6. Thanks!
Ans. f

Qu. Exam item: decide whether the reported selectivity ratio for C#CCCCOC(=O)[C@H]1O[C@@H](n2ccc(N)nc2=O)C=C[C@@H]1NC(=O)C[C@@H](N)CCN(C)C(=N)N is at least 0.6.
Ans. t

Qu. Decide: is the reported value of selectivity ratio for CCCCCCOC(=O)[C@H]1O[C@@H](n2ccc(N)nc2=O)C=C[C@@H]1NC(=O)C[C@@H](N)CCN(C)C(=N)N equal to or greater than 0.6?
Ans. f

Qu. Exam item: decide whether the reported selectivity ratio for CN(CC[C@H](N)CC(=O)N[C@H]1C=C[C@H](n2ccc(N)nc2=O)O[C@@H]1C(=O)OCc1ccccc1)C(=N)N is at least 0.6.
Ans. f

Qu. Does selectivity ratio meet or surpass 0.6 for CCOC(=O)[C@H]1O[C@@H](n2ccc(N)nc2=O)C=C[C@@H]1NC(=O)C[C@@H](N)CCN(C)C(=N)N.Cl.Cl.Cl ?
Ans. f

Qu. API: above_or_equal(metric=selectivity ratio, cutoff=0.6) for item CN(CC[C@H](N)CC(=O)N[C@H]1C=C[C@H](n2ccc(N)nc2=O)O[C@@H]1C(=O)OCCc1ccccc1)C(=N)N
Ans. t

Qu. Has CN(CC[C@H](N)CC(=O)N[C@H]1C=C[C@H](n2ccc(N)nc2=O)O[C@@H]1C(N)=O)C(=N)N.Cl.Cl.Cl a recorded selectivity ratio greater than or equal to 0.6?
Ans. f

* * *

System: Saccharomyces cerevisiae
test_details: Antifungal activity against Saccharomyces cerevisiae incubated for 16 hrs by broth microdilution method
Format: functional
I'd be grateful if you could share measured MIC for these entries.
Respond numerically; units are µg/mL and should not be typed.

Qu. Value lookup for MIC; key = CN(CC[C@H](N)CC(=O)N[C@H]1C=C[C@H](n2ccc(N)nc2=O)O[C@@H]1C(=O)O)C(=N)N.Cl
Ans. 16

Qu. Endpoint output: MIC of CCCOC(=O)[C@H]1O[C@@H](n2ccc(N)nc2=O)C=C[C@@H]1NC(=O)C[C@@H](N)CCN(C)C(=N)N . Value?
Ans. 32

Qu. What value of MIC has been recorded for this entry: COC(=O)[C@H]1O[C@@H](n2ccc(N)nc2=O)C=C[C@@H]1NC(=O)C[C@@H](N)CCN(C)C(=N)N
Ans. 32

Qu. Requested read-out: MIC. Entry: C#CCCCOC(=O)[C@H]1O[C@@H](n2ccc(N)nc2=O)C=C[C@@H]1NC(=O)C[C@@H](N)CCN(C)C(=N)N
Ans. 64

Qu. Fill in the blank: the reported MIC of CCCCCCOC(=O)[C@H]1O[C@@H](n2ccc(N)nc2=O)C=C[C@@H]1NC(=O)C[C@@H](N)CCN(C)C(=N)N is ____.
Ans. 16

Qu. What value of measured MIC is listed for CN(CC[C@H](N)CC(=O)N[C@H]1C=C[C@H](n2ccc(N)nc2=O)O[C@@H]1C(N)=O)C(=N)N.Cl.Cl.Cl ?
Ans. 64

Qu. Look up MIC for this compound: CCCCOC(=O)[C@H]1O[C@@H](n2ccc(N)nc2=O)C=C[C@@H]1NC(=O)C[C@@H](N)CCN(C)C(=N)N
Ans. 64
